Reference source for all entries: the Deep4Chem optical property database

Provide the recorded emission maximum for the entries that follow.
test: solvent given as SMILES; conditions: in C1CCCCC1
Numbers only, in nm.

- COMPOUND: "Cc1ccccc1C1=C2C=c3c(oc4c3ccc3ccccc34)=[N+]2[B-](F)(F)n2c1cc1c3ccc4ccccc4c3oc12"
  SCALE_UNIT: "nm"
  TEST_VALUE: 625

Count: 4. Required value per item: emission maximum.
1. CCCCC(CC)CN1C(=O)c2cccc3c(C#Cc4ccc(N(c5ccccc5)c5ccccc5)cc4)ccc(c23)C1=O (stereo not given)
2. c1cc2ccc1CCCc1ccc(c3nsnc13)CCC2
3. CN1CCN(c2ccc3c4c(cccc24)C(=O)c2ccccc2-3)CC1
4. CN(C)c1ccc2nc(-c3ccccc3)sc2c1Cl

output:
462
468
533
389

###

assay: solvent given as SMILES; details: in CC(C)O
MEASURE_NAME: emission maximum

Reference set, count: 10
- COMPOUND: "CN(C)c1ccc(/C=C/c2cc[n+](C)cc2)cc1"
  emission maximum: "591 nm"
- COMPOUND: "CN(C)c1ccc2nc(-c3ccc(C(=O)Nc4ccccc4)cc3)sc2c1"
  emission maximum: "534 nm"
- COMPOUND: "N#Cc1cc2ccccc2[nH]1"
  emission maximum: "332 nm"
- COMPOUND: "COc1ccc(C2CC(c3ccc(O)cc3)=NN2c2ccc(S(N)(=O)=O)cc2)cc1 (stereo unspecified)"
  emission maximum: "423 nm"
- COMPOUND: "COc1ccc(-c2cc(-c3ccc(C)cc3)nc3c(C#N)c(N4CCCC4)nc(N)c23)cc1"
  emission maximum: "511 nm"
- COMPOUND: "Cc1ccc(-c2cc(-c3ccccc3Cl)c3c(N)nc(N4CCCC4)c(C#N)c3n2)cc1"
  emission maximum: "516 nm"
- COMPOUND: "COc1ccc(/C=C/c2ccccc2)cc1"
  emission maximum: "365 nm"
- COMPOUND: "CN(C)c1ccc2c3c(ccc2c1)C(=O)CCC3"
  emission maximum: "482 nm"
- COMPOUND: "CC(=O)Nc1ccc2c3c(cccc13)C(=O)c1ccccc1-2"
  emission maximum: "567.86 nm"
- COMPOUND: "O=C1Nc2ccccc2/C1=C/C(=O)c1ccc(Cl)cc1"
  emission maximum: "404 nm"

Give emission maximum for each of the items listed below.
1. Oc1cccc(/N=C/c2ccccc2Oc2ccccc2)c1
2. Cc1ccc2cc3c(=O)n(C)c(=O)n(C)c3nc2c1
3. Nc1ccc(/C=C2\OC(=O)c3ccccc32)cc1

output:
["406 nm", "408 nm", "548.25 nm"]

Give one value of emission maximum per listed compound.
1. CN(C)c1ccc2nc(-c3ccccc3)sc2c1Cl
2. Cc1cc(=O)c2ccc(N)cc2o1

output:
1. 477.17 nm
2. 418 nm

###

experiment: solvent given as SMILES; conditions: in Cc1ccccc1
Could you please report measured emission maximum for the items listed next?
Give bare numbers, in nm.

Answered examples (3):
- COMPOUND_STRUCTURE_STRING: "CCCCOc1ccc(-c2cc3c(o2)c(-c2ccc(OCCCC)cc2)c2n3[B-](F)(F)[N+]3=Cc4c(-c5ccc(OCCCC)cc5)c5oc(-c6ccc(OCCCC)cc6)cc5n4[B-](F)(F)[N+]3=C2)cc1"
  SCALE_UNIT: "nm"
  emission maximum: 660
- COMPOUND_STRUCTURE_STRING: "CN(C)c1ccc(/C=C/c2nc(/C=C/c3ccc(N(c4ccccc4)c4ccccc4)cc3)cc(/C=C/c3ccc(N(c4ccccc4)c4ccccc4)cc3)n2)cc1"
  SCALE_UNIT: "nm"
  emission maximum: 495
- COMPOUND_STRUCTURE_STRING: "COc1c2ccccc2c(-c2ccccc2)c2ccccc12"
  SCALE_UNIT: "nm"
  emission maximum: 419

// for each compound in input: emit emission maximum
1. CC(C)(C)c1cc2ccc3c(-c4ccc(N(c5ccccc5)c5ccccc5)cc4)ccc4c5nc6cc(C#N)c(C#N)cc6nc5c(c1)c2c34
2. c1ccc(C(=C(c2ccccc2)c2ccc(-c3ccc(-c4nc5c(-c6ccc(-c7ccc(C(=C(c8ccccc8)c8ccccc8)c8ccccc8)cc7)cc6)sc(-c6ccc(-c7ccc(C(=C(c8ccccc8)c8ccccc8)c8ccccc8)cc7)cc6)c5nc4-c4ccc(-c5ccc(C(=C(c6ccccc6)c6ccccc6)c6ccccc6)cc5)cc4)cc3)cc2)c2ccccc2)cc1

output:
[613, 637]
